The measurements presented in this section are drawn from paper PMC5540273.

Tested on: SNARK;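 note: KINOMEscan kinase panel screen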
Construct: gene NUAK2
Settings: concentration: 1 μM, replicates: in singlicate; n = 1
// %Inh lookup, one value per entry
OBSERVATION_TYPE: %Inh (%)

- COMPOUND_SMILES: "O=C(Nc1n[nH]c2cc(-c3cccs3)ccc12)C1CC1"
  NUMERIC_VALUE: 13
- COMPOUND_SMILES: "CN(c1ccc(NC(=O)Nc2cccc(Cl)c2)cc1)c1ccnc(N)n1.Cl"
  NUMERIC_VALUE: 0
- COMPOUND_SMILES: "Cc1nn2c(=O)cc(N3CCO[C@H](C)C3)nc2n1Cc1cccc(Cl)c1Cl"
  NUMERIC_VALUE: 0
- COMPOUND_SMILES: "COc1cc(Nc2nccc(N3CCC(NS(=O)(=O)c4ccc(NC(C)=O)cc4)CC3)n2)cc(OC)c1OC"
  NUMERIC_VALUE: 0
